Experiment: Pharmacokinetic of acylated HBD-1 fragment analogs in male Sprague Dawley rats after subcutaneous injection
Format: in vivo
Conditions: Table 24, sc, 1 μmol net peptide/kg
Residues, ends and D or L forms follow the SMILES beside them. *: point of attachment. C16 diacid = O=C(O)CCCCCCCCCCCCCCC(=O)*; Stearoyl = CCCCCCCCCCCCCCCCCC(=O)*; Palmitoyl = CCCCCCCCCCCCCCCC(=O)*; Myristoyl = CCCCCCCCCCCCCC(=O)*
MEASUREMENT_NAME: Tlast (last time point with detectable peptide) (h)

COMPOUND	MEAS_VALUE
CC(C)C[C@H](NC(=O)CNC(=O)[C@H](CC(C)C)NC(=O)[C@H](Cc1c[nH]cn1)NC(=O)CCCCCCCCCCCCCCC(=O)O)C(=O)N[C@@H](CCC(=O)O)C(=O)N[C@@H](CCC(=O)O)C(=O)N1CCC[C@H]1C(=O)N[C@@H](CCCCN)C(=O)N[C@@H](CCCCN)C(=O)O [compound 75] ({C16 diacid}-HLGLEEPKK-OH; C-terminus assumed)	8
CCCCCCCCCCCCCC(=O)N[C@@H](Cc1c[nH]cn1)C(=O)N[C@@H](CC(C)C)C(=O)NCC(=O)N[C@@H](CC(C)C)C(=O)N[C@@H](CCC(=O)O)C(=O)N[C@@H](CCC(=O)O)C(=O)N1CCC[C@H]1C(=O)N[C@@H](CCCCN)C(=O)N[C@@H](CCCCN)C(=O)O [compound 71] (Myristoyl-HLGLEEPKK-OH; C-terminus assumed)	6
CCCCCCCCCCCCCCCC(=O)N[C@@H](Cc1c[nH]cn1)C(=O)N[C@@H](CC(C)C)C(=O)NCC(=O)N[C@@H](CC(C)C)C(=O)N[C@@H](CCC(=O)O)C(=O)N[C@@H](CCC(=O)O)C(=O)N1CCC[C@H]1C(=O)N[C@@H](CCCCN)C(=O)N[C@@H](CCCCN)C(=O)O [compound 72] (Palmitoyl-HLGLEEPKK-OH)	8
CCCCCCCCCCCCCCCC(=O)NCCCC[C@H](NC(=O)[C@H](CCCCN)NC(=O)[C@@H]1CCCN1C(=O)[C@H](CCC(=O)O)NC(=O)[C@H](CCC(=O)O)NC(=O)[C@H](CC(C)C)NC(=O)CNC(=O)[C@H](CC(C)C)NC(=O)[C@@H](N)Cc1c[nH]cn1)C(=O)O [compound 76] (H-HLGLEEPKK(Palmitoyl)-OH; N-terminus and C-terminus assumed)	8
CCCCCCCCCCCCCCCCCC(=O)N[C@@H](Cc1c[nH]cn1)C(=O)N[C@@H](CC(C)C)C(=O)NCC(=O)N[C@@H](CC(C)C)C(=O)N[C@@H](CCC(=O)O)C(=O)N[C@@H](CCC(=O)O)C(=O)N1CCC[C@H]1C(=O)N[C@@H](CCCCN)C(=O)N[C@@H](CCCCN)C(=O)O [compound 73] (Stearoyl-HLGLEEPKK-OH)	8
